target: P2X7 receptor (Homo sapiens); construct: stably expressing the full length P2X7 receptor; assay: Ca++ flux assay (FLIPR) in P2X7-HEK-293 cell line stably expressing the full length P2X7 receptor, Bz-ATP activation; settings: P2X7-HEK-293 cells; agonist Bz-ATP; fluorescence as total area over 90 seconds; read-out: P2X7 Ca Flux hu IC50
measurement-name: pIC50
Scale for pIC50: -log10 of concentration given in mol/L; no unit attached.

For orientation, consider the following solved cases.
compound | assayed-target | pIC50
O=c1c2nnc(SCc3cc(Cl)cc(Cl)c3)n2ccn1-c1cccc(C(F)(F)F)c1F [Compound 58] | P2X7 receptor (Homo sapiens) | 6.37
Cc1c(Cl)cccc1-n1ccn2c(SCc3ccc(F)c(F)c3)nnc2c1=O [Compound 115] | P2X7 receptor (Homo sapiens) | 6.05
Cc1c(-n2ccn3c(SCc4ccccc4-c4ccc(F)cc4)nnc3c2=O)cccc1C(F)(F)F [Compound 10] | P2X7 receptor (Homo sapiens) | 7.37
Cc1c(Cl)cccc1-n1ccn2c(SCc3cc(C(F)(F)F)cc(C(F)(F)F)c3)nnc2c1=O [Compound 88] | P2X7 receptor (Homo sapiens) | 5.08
Cc1c(Cl)cccc1-n1ccn2c(SCc3ccccn3)nnc2c1=O [Compound 98] | P2X7 receptor (Homo sapiens) | 5.63
Cc1c(Cl)cccc1-n1ccn2c(SCc3c(F)cccc3F)nnc2c1=O [Compound 105] | P2X7 receptor (Homo sapiens) | 6.41
Cc1c(-n2ccn3c(SCc4ccccc4I)nnc3c2=O)cccc1C(F)(F)F [Compound 11] | P2X7 receptor (Homo sapiens) | 6.98

Here is another compound to look at.
Query: Look at this compound and give its reported pIC50. Cc1c(-n2ccn3c(S(=O)(=O)Cc4cccc5c4-c4ccccc4C5)nnc3c2=O)cccc1C(F)(F)F [Compound 159]
Result: 5.95

###

target: P2X7 receptor (Homo sapiens, UniProt Q99572); construct: stably expressing the full length P2X7 receptor; experiment: Ca++ flux assay (FLIPR) in P2X7-HEK-293 cell line stably expressing the full length P2X7 receptor, Bz-ATP activation; conditions: P2X7-HEK-293 cells; agonist Bz-ATP; fluorescence as total area over 90 seconds; read-out: P2X7 Ca Flux hu IC50
Sequence (Q99572 whole entry): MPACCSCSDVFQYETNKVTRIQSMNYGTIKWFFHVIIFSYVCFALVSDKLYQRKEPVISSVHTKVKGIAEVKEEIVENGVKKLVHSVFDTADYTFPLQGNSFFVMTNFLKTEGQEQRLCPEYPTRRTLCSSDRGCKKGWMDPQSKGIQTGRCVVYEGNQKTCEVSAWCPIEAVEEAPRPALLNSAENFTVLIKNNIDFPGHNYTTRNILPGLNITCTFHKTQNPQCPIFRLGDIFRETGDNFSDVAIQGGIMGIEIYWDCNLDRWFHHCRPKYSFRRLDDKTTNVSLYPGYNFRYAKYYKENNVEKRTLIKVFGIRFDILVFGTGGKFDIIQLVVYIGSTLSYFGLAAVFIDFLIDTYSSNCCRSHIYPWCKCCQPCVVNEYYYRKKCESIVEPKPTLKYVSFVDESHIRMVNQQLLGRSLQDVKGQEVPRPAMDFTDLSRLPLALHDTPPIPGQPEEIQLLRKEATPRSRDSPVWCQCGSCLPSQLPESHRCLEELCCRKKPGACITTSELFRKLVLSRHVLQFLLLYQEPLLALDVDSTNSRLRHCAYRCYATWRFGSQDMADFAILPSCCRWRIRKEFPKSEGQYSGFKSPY
measurement-name: pIC50
Scale for pIC50: -log10 of concentration given in mol/L; no unit attached.

For orientation, consider the following solved cases.
molecule | pIC50
Cc1c(-n2ccn3c(S(=O)(=O)Cc4ccccc4C(C)(C)C)nnc3c2=O)cccc1C(F)(F)F [Compound 129] | 7.77
O=c1c2nnc(SCc3cccc4ccccc34)n2ccn1-c1cccc(C(F)(F)F)c1Cl [Compound 27] | 6.78
Cc1c(-n2ccn3c(SCc4ccccc4Cl)nnc3c2=O)cccc1C(F)(F)F [Compound 28] | 6.83
O=c1c2nnc(SCc3cc(Cl)cc(Cl)c3)n2ccn1-c1cccc(Cl)c1Cl [Compound 67] | 6.77
Cc1c(-n2ccn3c(SCc4cccc5c4-c4ccccc4C5)nnc3c2=O)cccc1C(F)(F)F [Compound 4] | 6.58
Cc1c(Cl)cccc1-n1ccn2c(S(=O)(=O)Cc3cc(Cl)cc(Cl)c3)nnc2c1=O [Compound 161] | 6.47

Query: Look at this molecule and give its reported pIC50. Cc1ccccc1CSc1nnc2c(=O)n(-c3cccc(C(F)(F)F)c3Cl)ccn12 [Compound 47]
Result: 7.38

Query: Look at this molecule and give its reported pIC50. COc1c(Cl)cccc1-n1ccn2c(SCc3ccccc3)nnc2c1=O [Compound 80]
Result: 6.27
